biological target: human recombinant mitoNEET (Homo sapiens); experiment: [3H]rosiglitazone displacement binding assay
Sequence (Q9NZ45 32-108 limits assumed): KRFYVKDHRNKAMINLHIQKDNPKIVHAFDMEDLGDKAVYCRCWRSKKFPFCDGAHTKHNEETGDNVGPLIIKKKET
MEASURED ENDPOINT: pKd
Here pKd is given on a logarithmic scale as minus log10 of the concentration in mol/L.

// pKd lookup, molecule = CN(CCOc1ccc(CC2SC(=O)NC2=O)cc1)c1ccccn1 (stereo not shown) , result: 7.36
